// each record: one item and its Ki for Mu-type opioid receptor (Rattus norvegicus)
Give just the numeric value; nM need not be written.

The following molecules have reported results that may help.
[[record]]
given_smiles = "NC(=O)CN(CCc1ccc(O)cc1)C(=O)CN(Cc1ccc2c(c1)OCO2)C(=O)CNCC(c1ccccc1)c1ccccc1"
assay_endpoint = "Ki"
observed = 6

[[record]]
given_smiles = "CCCCCN(CC(=O)N(CCc1ccc(O)cc1)CC(N)=O)C(=O)CNCC(c1ccccc1)c1ccccc1"
assay_endpoint = "Ki"
observed = 46


INPUT: Look up Ki of COc1ccc(CN(CC(=O)N(CCc2ccc(O)cc2)CC(N)=O)C(=O)CNCC(c2ccccc2)c2ccccc2)cc1OC and report it.
OUTPUT: 31
